# System: HepG2
# Method summary: Cytotoxicity against human HepG2 cells
# Type: functional, cell-based
Property label: IC50

Known results for molecules:
Smiles str	Measured result
C[C@H](CCC(=O)O)[C@H]1CC(=O)[C@@]2(C)C3=C(C(=O)C[C@]12C)[C@@]1(C)CC[C@H](O)C(C)(C)[C@@H]1C[C@@H]3O	0.206 nM
C[C@H](CC(=O)C[C@@H](C)[C@H]1CC(=O)[C@@]2(C)C3=C(C(=O)C[C@]12C)[C@@]1(C)CCC(=O)C(C)(C)[C@@H]1CC3=O)C(=O)O	0.144 nM

// switching to the query molecule
Req: Entry C[C@H](CCC(=O)O)[C@H]1CC(=O)[C@@]2(C)C3=C(C(=O)C[C@]12C)[C@@]1(C)CCC(=O)C(C)(C)[C@@H]1C[C@@H]3O : reported IC50 = ?
Resp: 0.164 nM
